Biological target: T1, mouse CLDN6 fused to GFP, expressed on engineered HEK293T cells (mouse, UniProt Q9Z262 1-219)
T1 construct: whole, on cells; also called HEK293T-CLDN6-mGFP Artificial CLDN6+ (mouse); murine CLDN6; not shown: GFP tag
T1 sequence (looked up): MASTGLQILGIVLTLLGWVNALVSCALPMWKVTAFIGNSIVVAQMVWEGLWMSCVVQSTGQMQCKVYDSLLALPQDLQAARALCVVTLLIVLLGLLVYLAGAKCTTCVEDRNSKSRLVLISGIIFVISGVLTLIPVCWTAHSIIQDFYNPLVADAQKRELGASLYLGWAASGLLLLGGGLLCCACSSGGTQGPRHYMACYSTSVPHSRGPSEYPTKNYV
Test: FACS, 293T clone with mouse CLDN6
Condition met if FACS signal is below 10000. Condition not met if not; exact matches included in Condition not met.

See these solved cases before continuing.
| Binder | Group |
| --- | --- |
| AB4-12 (antibody, V domains shown, Humanized; full-length IgG; see note of AB4-8; also called humanized AB 4-12) VH: QVQLVQSGAEVKKPGASVKMSCKASGYTFTSYTMHWIRQAPGQGQEWIGYINPSSTYTHYIKKFKDRATLTADKSTSTAYMELSSLRSEDTAVYYCSRGELGGFAYWGQGTLVTVSS VL: DVVMTQSPLSLPVTLGQPASISCRSSQSLVHSDGNTYLNWYQQRPGQSPRLLIYKVSNRFSGVPDRFSGSGSGTDFTLKISRVEAEDVGVYYCSQSTHVPYTFGQGTKLEIK | Condition met |
| AB1-3 (antibody, V domains shown, Humanized; also called humanized AB 1-3) VH: QVQLVQSGAEVKKPGASVKVSCKASGYTFTTYTMHWVRQAPGQGLEWMGFINPSSGYTDYAQKFQGRVTMTADTSTSTVYMELSSLRSEDTAVYYCANGDYYVAYWGQGTLVTVSS VL: DIQMTQSPSSLSASVGDRVTITCTASSSVSSTYFHWYQQKPGKAPKLLIYSTSNLASGVPSRFSGSGSGTDYTLTISSLQPEDFATYYCHQYHRSPLTFGQGTKLEIK | Condition not met |
| AB4-8 (antibody, V domains shown, Humanized; full-length IgG; also called humanized AB 4-8) VH: QVQLVQSGAEVKKPGASVKVSCKASGYTFTSYTMHWVRQAPGQGLEWMGYINPSSTYTHYIKKFKDRVTMTADTSTSTVYMELSSLRSEDTAVYYCSRGELGGFAYWGQGTLVTVSS VL: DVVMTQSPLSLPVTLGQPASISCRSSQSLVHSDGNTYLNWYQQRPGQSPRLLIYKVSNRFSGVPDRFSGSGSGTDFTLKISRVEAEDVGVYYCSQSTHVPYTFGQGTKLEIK | Condition met |
| AB1-5 (antibody, V domains shown, Humanized; also called humanized AB 1-5) VH: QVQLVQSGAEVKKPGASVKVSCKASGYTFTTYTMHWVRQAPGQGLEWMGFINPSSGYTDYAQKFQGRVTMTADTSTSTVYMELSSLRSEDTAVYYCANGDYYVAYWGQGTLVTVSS VL: DIQLTQSPSSLSASVGDRVTMTCTASSSVSSTYFHWYQQKPGKAPKLWIYSTSNLASGVPSRFSGSGSGTDYTLTISSMQPEDAATYYCHQYHRSPLTFGQGTKLEIK | Condition not met |
| AB4-6 (antibody, V domains shown, Humanized; also called humanized AB 4-6) VH: QVQLVQSGAEVKKPGASVKMSCKASGYTFTSYTMHWIRQAPGQGLEWIGYINPSSTYTHYAQKFQGRATLTADKSTSTAYMELSSLRSEDTAVYYCSRGELGGFAYWGQGTLVTVSS VL: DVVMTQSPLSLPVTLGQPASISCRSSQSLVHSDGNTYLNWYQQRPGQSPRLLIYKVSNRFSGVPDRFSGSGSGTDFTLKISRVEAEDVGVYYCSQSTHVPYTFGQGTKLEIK | Condition not met |

(Q) is_below(FACS signal, 10000) for AB11-2 (antibody, V domains shown, Humanized; also called humanized AB 11-2) VH: EVQLVESGGGLVQPGGSLRLSCAASGFTFSSFGMHWVRQAPGKGLEWVAYISSDSRTIYYADSVKGRFTISRDNAKNSLYLQMNSLRAEDTAVYYCARDYGRTYEAYWGQGTLVTVSS VL: DIVMTQSPDSLAVSLGERATINCRASKSVSTSGYSYIHWYQQKPGQPPKLLIYLASNLESGVPDRFSGSGSGTDFTLTISSLQAEDVAVYYCQHSRELPLTFGQGTKLEIK ?
(A) Condition met

(Q) is_below(FACS signal, 10000) for AB1-4 (antibody, V domains shown, Humanized; also called humanized AB 1-4) VH: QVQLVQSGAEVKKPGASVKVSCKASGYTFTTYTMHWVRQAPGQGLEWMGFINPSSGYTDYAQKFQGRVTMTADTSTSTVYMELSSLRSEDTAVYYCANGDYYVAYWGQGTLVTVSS VL: DIQLTQSPSSLSASVGDRVTMTCTASSSVSSTYFHWYQQKPGKAPKLLIYSTSNLASGVPSRFSGSGSGTDYTLTISSMQPEDAATYYCHQYHRSPLTFGQGTKLEIK ?
(A) Condition not met

(Q) is_below(FACS signal, 10000) for AB3-5 (antibody, V domains shown, Humanized; also called humanized AB 3-5) VH: EVQLLESGGGLVQPGGSMRLSCAASGFTFSNYWMNWVRQAPGKGLEWVAQIRLKSDNYATHYADSVKGRFTISRDDSKNTVYLQMNSLRAEDTGVYYCNDGPPSGYWGQGTLLTVSS VL: DIQMTQSPSSLSASVGDRVTITCRISENIYSYLAWYQQKPGKAPKLLVYNAKILVEGVPSRFSGSGSGTDFTLTISSLQPEDFGTYYCQHHYTVPWTFGQGTKLEIK ?
(A) Condition met

(Q) is_below(FACS signal, 10000) for AB1-6 (antibody, V domains shown, Humanized; also called humanized AB 1-6) VH: QVQLVQSGAEVKKPGASVKMSCKASGYTFTTYTMHWVRQAPGQGLEWIGFINPSSGYTDYAQKFQGRVTLTADTSTSTVYMELSSLRSEDTAVYYCANGDYYVAYWGQGTLVTVSS VL: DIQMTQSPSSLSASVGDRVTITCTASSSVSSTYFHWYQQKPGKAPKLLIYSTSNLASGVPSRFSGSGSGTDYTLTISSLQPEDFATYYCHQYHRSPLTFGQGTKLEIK ?
(A) Condition not met

(Q) is_below(FACS signal, 10000) for AB1-7 (antibody, V domains shown, Humanized; also called humanized AB 1-7) VH: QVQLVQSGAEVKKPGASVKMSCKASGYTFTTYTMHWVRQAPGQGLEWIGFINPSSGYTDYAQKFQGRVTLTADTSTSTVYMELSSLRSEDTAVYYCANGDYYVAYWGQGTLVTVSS VL: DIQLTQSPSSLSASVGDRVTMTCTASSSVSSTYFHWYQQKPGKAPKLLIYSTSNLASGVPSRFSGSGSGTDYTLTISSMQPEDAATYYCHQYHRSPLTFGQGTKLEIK ?
(A) Condition not met
